test system: Fibroblast; assay: Multiplex assay against human fibroblast; format: toxicity, cell-based; conditions: 24 h, 1 µM, compound concentration 1 uM, replicate 1
Documented Population Normal (%) across a set of compounds

compound: CC(C)NCC(O)COc1ccc(CCOCC2CC2)cc1.Cl (stereo not drawn) [BETAXOLOL HYDROCHLORIDE]
Population Normal (%): 90%
--
compound: OC1(c2ccc(Cl)cc2)CCN(Cc2c[nH]c3ccccc23)CC1
Population Normal (%): 85%
--
compound: Cn1cc(-c2[nH]c3cc(NC(=O)[C@H](N)C4CCCCC4)cc4c3c2C=NNC4=O)cn1
Population Normal (%): 87%

* * *

test system: HEK-293T; assay: Multiplex assay against HEK293T; format: toxicity, cell-based; settings: human, 24 h, 10 µM, compound concentration 10 uM, replicate 1

molecule: Cn1cc(-c2[nH]c3cc(NC(=O)[C@H](N)C4CCCCC4)cc4c3c2C=NNC4=O)cn1
Population Mitotic Cells (%): 25
--
molecule: COc1cccc([C@@H](C)NCCCc2ccccc2Cl)c1.Cl [TECALCET HYDROCHLORIDE]
Population Mitotic Cells (%): 25
--
molecule: CN(C)C(=O)/C(C#N)=C/c1ccc(-c2nc3cnc4[nH]ccc4c3n2C2CCCCC2)o1
Population Mitotic Cells (%): 55
--
molecule: CN1CCCC(n2nc(Cc3ccc(Cl)cc3)c3ccccc3c2=O)CC1.Cl (centres undefined) [AZELASTINE HYDROCHLORIDE]
Population Mitotic Cells (%): 17
--
molecule: CC(C)(O)CNc1ncc(-c2ccnc(Nc3ccnc(Cl)c3)n2)c(CC2CC2)n1
Population Mitotic Cells (%): 26
--
molecule: CN(C)C(=O)N[C@H]1CC[C@H](CCN2CCN(c3cccc(Cl)c3Cl)CC2)CC1.Cl [CARIPRAZINE HYDROCHLORIDE]
Population Mitotic Cells (%): 9
--
molecule: CC[C@H](C)C(=O)O[C@H]1C[C@@H](C)C=C2C=C[C@H](C)[C@H](CC[C@@H]3C[C@@H](O)CC(=O)O3)[C@H]21 [LOVASTATIN]
Population Mitotic Cells (%): 61
--
molecule: Cc1cc(C)cc(-c2cnc3cc(Cl)c(-c4cccc(O)c4)cc3c2OCCCN)c1
Population Mitotic Cells (%): 22
--
molecule: Cl.N#Cc1ccc2[nH]cc(CCCCN3CCN(c4ccc5oc(C(N)=O)cc5c4)CC3)c2c1 [VILAZODONE HYDROCHLORIDE]
Population Mitotic Cells (%): 1
